Form field: pEC50 (one value per entry).
- Test: Antagonist activity at recombinant human GPR55 expressed in HEK293 cells assessed as inhibition of LPI mediated receptor activation by measuring LPI EC50 after 5 mins by xCELLigence assay (Rvb = 1.6 to 4.1 nM)
pEC50: −log10 of the molar value.

- Smiles Data: "COc1ccc2c(c1)OC(C)(C)c1cn(CNC(=O)CN3CCN(c4ccccc4OC)CC3)nc1-2"
  pEC50: 7.55
- Smiles Data: "COc1ccc2c(c1)OC(C)(C)c1cn(CNC(=O)CN3CCN(c4ccccc4)CC3)nc1-2"
  pEC50: 7.49
- Smiles Data: "COc1ccc2c(c1)OC(C)(C)c1cnn(CNC(=O)CN3CCN(c4ccccc4)CC3)c1-2"
  pEC50: 7.55
- Smiles Data: "COc1ccc(N2CCN(CC(=O)NCn3ncc4c3-c3ccc(OC)cc3OC4(C)C)CC2)cc1"
  pEC50: 7.57
